Where do these numbers come from? They come from PubChem BioAssay.

Assay text: LAP4-GFP expression modulators in yeast, confirmation, cell-based, cherry picks, flow cytometry, mother/daughter gates (AID 2271);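 note: ratio of sample to DMSO plate mean so 100% equals DMSO level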
Condition notes: S. cerevisiae LAP4-GFP strain, 3 h, at 10 µM, hits give high values, 100 means same as DMSO control
Examples of compounds with documented GFP response relative to DMSO follow.

>  <Compound>
CCc1nnc(NC(=O)c2ccc(S(=O)(=O)N(CC)Cc3ccccc3)cc2)o1

>  <GFP response relative to DMSO / %>
102

$$$$
>  <Compound>
CC(=O)c1sc(NC(=O)c2ccco2)nc1-c1ccccc1

>  <GFP response relative to DMSO / %>
107

$$$$
>  <Compound>
CCCc1nnc(NC(=O)c2nc(S(=O)(=O)Cc3cccc(C)c3)ncc2Cl)s1

>  <GFP response relative to DMSO / %>
106

$$$$
>  <Compound>
C/C(=N\NC(=O)COc1ccccc1-c1ccccc1)c1ccccn1

>  <GFP response relative to DMSO / %>
145

$$$$
>  <Compound>
COc1cc(NC(=O)c2ccc(C)cc2)ccc1NC(=O)c1cc2ccccc2o1

>  <GFP response relative to DMSO / %>
95.7

$$$$
>  <Compound>
Cc1ccc(C2CC(c3ccco3)=NN2S(C)(=O)=O)cc1 (stereo unspecified)

>  <GFP response relative to DMSO / %>
105

$$$$

----------
Assay text: modulators of MEP2-GFP levels in yeast, confirmation, S. cerevisiae, flow cytometry GFP, cherry picks (AID 2272);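 note: ratio of well signal to plate DMSO mean so 100% equals DMSO level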
Condition notes: S. cerevisiae MEP2-GFP strain, 3 h, at 10 µM, hits give high values
Examples of compounds with documented GFP response vs DMSO follow.

>  <Compound>
O=C1C2C3C=CC(CNS(=O)(=O)c4ccccc4[N+](=O)[O-])(O3)C2C(=O)N1c1ccccc1 (configuration not stated)

>  <GFP response vs DMSO / %>
101

$$$$
>  <Compound>
COc1ccc(N/N=C(\C#N)C(N)=O)cc1

>  <GFP response vs DMSO / %>
141

$$$$
>  <Compound>
CCOc1ccccc1-c1noc(CCC(=O)Nc2cccnc2)n1

>  <GFP response vs DMSO / %>
111

$$$$
>  <Compound>
O=C1c2ccccc2C(=O)N1OS(=O)(=O)c1ccc(F)cc1

>  <GFP response vs DMSO / %>
103

$$$$
>  <Compound>
O=C1c2ccsc2SCCN1Cc1cccc(Cl)c1

>  <GFP response vs DMSO / %>
98.3

$$$$
>  <Compound>
NC(=O)C1CCN(C(=S)NCCc2ccccc2)CC1

>  <GFP response vs DMSO / %>
99.3

$$$$
>  <Compound>
CCS(=O)(=O)N1N=C(c2ccccc2)CC1c1ccc2nccnc2c1 (configuration not stated)

>  <GFP response vs DMSO / %>
116

$$$$
>  <Compound>
O=C1c2ccsc2SCCN1Cc1cccc(F)c1

>  <GFP response vs DMSO / %>
92.6

$$$$
>  <Compound>
CCCc1[nH]nc2c1C(c1cccnc1)C(C#N)=C(N)O2 (configuration not stated)

>  <GFP response vs DMSO / %>
96.2

$$$$
>  <Compound>
O=C(O)c1ccc(Sc2ccccn2)c([N+](=O)[O-])c1

>  <GFP response vs DMSO / %>
102

$$$$
>  <Compound>
Oc1c(CN2CCCCC2)cc(Br)c2cccnc12

>  <GFP response vs DMSO / %>
118

$$$$
>  <Compound>
CCOC(=O)C1=C(Cc2ccc(Cl)cc2)C(=O)c2ccccc2C1=O

>  <GFP response vs DMSO / %>
104

$$$$
